Numbers sourced from patent US20160208018A1.

- TARGET_UNDER_TEST: T1, Human ROR1 (receptor tyrosine kinase-like orphan receptor 1) (human, UniProt Q01973 30-937)
- T1 construct: also called hROR1; K562/ROR1
- TEST_PROTOCOL: competition with Myc-R12 scFv on ROR1/K562 cells; predicted plateau relative to R12 scFv = 100%
REPORTED_METRIC: % Max Competition (%)
Express your answer in %, writing the number without its unit.

Q) Query (binder): Clone V70 (VHH, human VH-only single-domain antibody, no VL) VHH: QVQLLESGGGLVQPGRSLRLSCTASGFTFGDYAMSWVRQAPGKGLEWVSSISGSGRSTDHADYVKGRFTISRDNSKNTVYLQMNRLRAEDTAVYYCAKVSNYEYYFDYWAQGTLVTVSS ; field requested: % Max Competition
A) 92

Q) Query (binder): Clone V397 (VHH, human VH-only single-domain antibody, no VL) VHH: QITLKESGGGLVQPGGSLRLSCAASGFTFSNAWMSWVRQAPGKGLEWVGRIKSKTDGGTTDYAAPLKGRFTISRDDSKNTLYLQMNSLKTEDTAVYYCARAKGLWFGESYYFDYWGQGTLVTVSS ; field requested: % Max Competition
A) 18

Q) Query (binder): Clone V316 (VHH, human VH-only single-domain antibody, no VL) VHH: EVQLVESGGGLVRPGGSLRLSCAASGLTFSRTWMSWVRQAPGKGLEWVASINDDGSEKYYVDSVKGRFTISRDNARNSLYLQMNRLRAEDTAVYYCARVDSERFLEWYYFDYWGQGTLVTVSS ; field requested: % Max Competition
A) 37

Q) Query (binder): Clone V353 (VHH, human VH-only single-domain antibody, no VL) VHH: QVTLKESGGGLVKPGGSLRLSCAASGFTFSNAWMSWVRQAPGKGLEWVGRIKSKTDGGTTDYAAPVKGRFTISRDDSKNTLYLQMNSLKTEDTAVYYCARDFGRWGYYFDYWSQGTLVTVSS ; field requested: % Max Competition
A) 62
